Give z-score for every item shown.
- experiment_summary: basal MM1S mitochondrial membrane potential changes, profiling panel, cell-based, JC-1 fluorescence, 24 h, 100 nL compound (AID 1170); further: test concentration not given here
- recorded_conditions: higher = more signal
Response field accepts a number only; no unit should be typed.

get_value(item= CC1(C)C(=O)C(c2ccccc2)=C2CN3C(=O)N(CCc4ccccc4)C(=O)C3(Cc3ccc(F)cc3)C=C21 (centres undefined) , readout=z-score) returns -0.59

get_value(item= CN1C(=O)C2C(C1=O)C1C=C(CCCO)C2C(C2CC2)N1Cc1cc2c(cc1Br)OCO2 (centres undefined) , readout=z-score) returns 0.859

get_value(item= C=C(/C(=C/C[C@H](OC(=O)c1ccncc1)c1cccc(OCCO)c1)c1cnc2ccccc2c1)C(C)C , readout=z-score) returns -0.888

get_value(item= Cc1ccc(S[C@]2(C(=O)NCc3ccccc3)CC(=O)N(Cc3cc(C(F)(F)F)cc(C(F)(F)F)c3)[C@@H]2c2ccc(CO)cc2I)cc1 , readout=z-score) returns -0.713

###

- experiment_summary: basal 3T3-L1 adipocyte mitochondrial potential changes, profiling panel, cell-based, JC-1 fluorescence, 3T3-L1 adipocytes, 24 h, 100 nL compound (AID 1168); further: test concentration not given here
- recorded_conditions: JC-1 mitochondrial fluorescence, higher = more signal, called active from +8 up or from −8 down
Tag: 1 (yes) if measured z-score is not below 0.06, 0 (no) if it is.

Query string: Reported z-score at or above 0.06? [N-]=[N+]=NCc1ccccc1[C@@H]1OC(c2ccc(OCCCO)cc2)=N[C@]1(Cc1ccccc1N=[N+]=[N-])C(=O)NCCN1CCOCC1
Result string: 1 (yes)

Query string: Reported z-score at or above 0.06? COC(=O)[C@@]1(Cc2ccc(OC)cc2)[C@H]2c3cc(C(=O)N4CCCC4)n(Cc4cc(C)n(C)n4)c3C[C@H]2CN1C(=O)c1ccccc1
Result string: 0 (no)

Query string: Reported z-score at or above 0.06? CC(C)C(=C=CC[C@@H](O)c1cccc(OCCO)c1)C[C@@H](O)COCc1ccccc1
Result string: 1 (yes)

Query string: Reported z-score at or above 0.06? COCCCNC(=O)[C@@]1(Sc2ccc(C)cc2)CC(=O)N(Cc2ccccc2Cl)[C@@H]1c1ccc(CO)cc1I
Result string: 0 (no)

Query string: Reported z-score at or above 0.06? COCCOC(=O)N1C(=O)[C@@]2(c3ccccc31)[C@H](c1ccccc1OCCO)N1[C@H](c3ccccc3)[C@H](c3ccccc3)OC(=O)[C@H]1[C@@H]2C(=O)N1CCCCCCC1
Result string: 0 (no)

Query string: Reported z-score at or above 0.06? C=C(/C(=C/C[C@H](OC(=O)c1ccncc1)c1cccc(OCCO)c1)c1cnc2ccccc2c1)C(C)C
Result string: 0 (no)

###

Give composite Z-score for every item shown.
- experiment_summary: small-molecule microarray binders of probe aXIP, primary screen, biochemical, NeuroSMM set, 635/667 nm fluorescence (AID 1119);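 further: probe is the protein aXip251-270 applied at 1 µg/mL to compound-printed slides; binding of probe to printed compounds measured as 667 nm fluorescence plus signal to noise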
- recorded_conditions: higher = more signal, called active from +8 up or from −8 down
Response field accepts a number only; no unit should be typed.

get_value(item= COc1ccc([Si](C)(C)[C@H]2[C@H](CC(=O)N3CCC[C@H]3CO)O[C@@]3(C(=O)N(Cc4ccc(N5CCC5=O)cc4)c4ccccc43)[C@@H]2C)cc1 , readout=composite Z-score) returns 0.156

get_value(item= CCc1cccc(NC(=O)O[C@H]2[C@H](OC(=O)Nc3ccccc3)[C@H](OC(=O)Nc3ccccc3)[C@@H](OC)O[C@@H]2CO)c1 , readout=composite Z-score) returns 1.21

get_value(item= COCC1=C2[C@@H](CCc3ccccc3)OB(O)C[C@@H]2[C@@H]2C(=O)N(C)C(=O)[C@@H]2C1 , readout=composite Z-score) returns 0.289

get_value(item= C=C(/C(=C/C[C@@H](OC(=O)c1ccncc1)c1cccc(OCCO)c1)c1cnc2ccccc2c1)C(C)C , readout=composite Z-score) returns 0.414

get_value(item= O=C1N(CCS(=O)(=O)c2ccccc2)Cc2ccccc2[C@@H]2OC(c3ccc(OCCCO)cc3)=N[C@]12CCS(=O)(=O)c1ccccc1 , readout=composite Z-score) returns 0.02

get_value(item= CCOC(=O)C[C@H]1[C@H](OC(=O)c2cc3ccccc3oc2=O)[C@@H](NC(=O)c2ccc3ccccc3c2)c2cc(OCCCO)ccc2N1C(=O)Cc1ccc(OC)cc1 , readout=composite Z-score) returns -0.0384

get_value(item= CC(C)c1ccc(NN2C(C(O)Cc3ccccc3)C=CC3C(=O)N(c4ccccc4)C(=O)C32)cc1 (stereo not drawn) , readout=composite Z-score) returns 0.221

get_value(item= CCN(CC)c1ccc(N2CC=CC34O[C@@H]5C=CCCOC(=O)C5[C@H]3C(=O)N(CCO)[C@@H]4C2=O)cc1 (stereo partly drawn) , readout=composite Z-score) returns -0.296

get_value(item= COc1ccc(C#Cc2ccc3c(c2)[C@]2(C(=O)N3)[C@H](C(=O)N3CCCCCCC3)[C@H]3C(=O)O[C@H](c4ccccc4)[C@H](c4ccccc4)N3[C@@H]2c2ccc(O)cc2)cc1 , readout=composite Z-score) returns 4.74

get_value(item= CCOC(=O)C1=C[C@@H](C(C)(C)C)N(S(=O)(=O)c2ccc(C)cc2)[C@H]1c1ccc(C)cc1 , readout=composite Z-score) returns 0.403

get_value(item= CC(C)C[C@@H]1NC(=O)[C@H]2C[C@@H](C(=O)NCCCCCN)[C@@H](c3cccc(OCCO)c3)N2C1=O , readout=composite Z-score) returns 1.26

get_value(item= COCCOC(=O)N1C(=O)[C@@]2(c3cc(C#CC4(O)CCCCCC4)ccc31)[C@H](C(=O)N1CCN(c3ncccn3)CC1)[C@H]1C(=O)O[C@H](c3ccccc3)[C@H](c3ccccc3)N1[C@@H]2c1ccccc1OCCO , readout=composite Z-score) returns 0.572

get_value(item= C=CCNC(=O)[C@@H]1[C@H]2C(=O)O[C@H](c3ccccc3)[C@H](c3ccccc3)N2[C@H](c2ccc(OCCO)cc2)[C@@]12C(=O)N(C(=O)OCCOC)c1ccc(C#CCCO)cc12 , readout=composite Z-score) returns 0.365

Reference source for all entries: PubChem BioAssay
